Measured %Inh values are reported for all entries that follow.
System: DAPK2;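 further: KINOMEscan kinase panel screen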
Conditions: concentration: 1 μM, replicates: in singlicate; n = 1

# molecule, target_or_test_system, %Inh, %
rows = [
    ("CCS(=O)(=O)c1ccc(OC)c(Nc2ncc(-c3ccc(F)cc3)o2)c1.Cl [GW591947]", "DAPK2", 0),
    ("CN1C(=O)C(Nc2ccccc2)=C(c2ccccc2)C1=O [SB-300079]", "DAPK2", 0),
    ("Nc1ncnc2c1ncn2-c1cccc2ccccc12 [SKF-97184]", "DAPK2", 0),
    ("COc1cc2nccc(Nc3ccc(OCc4ccc(NC(C)=O)cc4)cc3)c2cc1OC.Cl [GW440135]", "DAPK2", 10),
    ("Cc1nn2c(=O)cc(N3CCOCC3)nc2n1Cc1cccc(Cl)c1Cl [GSK2342769]", "DAPK2", 21),
    ("COc1cc2nccc(Nc3cccc(Oc4ccccc4)c3)c2cc1OC.Cl [GW284543]", "DAPK2", 0),
    ("Fc1cccc(CSc2nnc(-c3ccc4c(c3)CCO4)o2)c1", "DAPK2", 0),
    ("O=c1cc(N2CCOCC2)nc2n(Cc3ccc(F)c(Cl)c3)ccn12 [GSK2297099]", "DAPK2", 0),
    ("CCC(=O)c1c(-c2ccccc2)c2cc(Cl)ccc2c(=O)n1Cc1ccc(C(=O)O)cc1", "DAPK2", 0),
    ("CCC(=O)c1c(-c2ccccc2)c2cc(Cl)ccc2c(=O)n1Cc1cc(C(=O)NC2CC2)n(C)n1", "DAPK2", 0),
    ("COc1cc(Nc2nccc(N3CCC(NC(=O)C(C)c4ccc(Cl)cc4)C3)n2)cc(OC)c1OC (centres unmarked) [GSK1379757]", "DAPK2", 0),
    ("Cc1nc(N(C)[C@H]2CN(C(=O)CC#N)CC[C@H]2C)c2cc[nH]c2n1", "DAPK2", 13),
    ("COc1ccc(-c2coc3ccc(-c4nnc(SCc5cccc(C#N)c5)o4)cc23)cc1", "DAPK2", 0),
    ("O=C(Nc1ccc2c(c1)OCO2)NC1CCN(c2ccnc(NCc3ccc(F)cc3)n2)CC1 [GSK1379859]", "DAPK2", 0),
    ("CCc1ccc(-c2ccc3c(c2)-c2nn(C)cc2S(=O)(=O)N3C)cc1", "DAPK2", 0),
    ("CC(C)(C)c1ccc(C(=O)Nc2cn3cc(-c4ccccc4)ccc3n2)cc1", "DAPK2", 0),
    ("Cc1cccc(-c2nc(Nc3ccc4c(cnn4C)c3)c3ccccc3n2)n1 [GW876731]", "DAPK2", 0),
    ("Nc1nccc2scc(-c3ccc4c(c3)CCN4C(=O)Cc3ccccc3)c12 [GSK2576924]", "DAPK2", 3),
    ("CCS(=O)c1ccc(-c2coc3ccc(-c4nnc(C)o4)cc23)cc1 (centres unmarked)", "DAPK2", 0),
    ("Cc1ccc(-c2ccc3c(ccc4sc5c(c43)NC[C@@H](C)N=C5N(C)C)n2)cn1", "DAPK2", 0),
    ("CCCNC(=O)Nc1ccc(Oc2ncnc3ccn(C)c23)cc1", "DAPK2", 0),
    ("CCC(=O)c1c(-c2ccccc2)c2cc(Cl)ccc2c(=O)n1Cc1cc(S(C)(=O)=O)n(CC(N)=O)n1", "DAPK2", 0),
    ("COc1cccc(C2=C(Nc3cccc(C(=O)O)c3)C(=O)NC2=O)c1 [SB-390770]", "DAPK2", 0),
]
